Values from the supplement of paper PMC4862054

tested on: MDA-MB-436; conditions: 72 h
measurement.type: EC50, CellTiter-Glo (µM)

Below: 2 compounds and their reported EC50, CellTiter-Glo.
CNC(=O)c1cc(Oc2ccc(NC(=O)Nc3ccc(Cl)c(C(F)(F)F)c3)c(F)c2)ccn1 [Regorafenib] :: 6.38
COc1cc2c(NC3CCN(C(C)C)CC3)nc(N3CCC(F)(F)CC3)nc2cc1OCCCN1CCCC1 [UNC0642] :: 4.1

a. COC(=O)c1ccc2c(c1)NC(=O)/C2=C(\Nc1ccc(N(C)C(=O)CN2CCN(C)CC2)cc1)c1ccccc1 [Nintedanib]
b. c1ccc2c(CCNc3ccc(Nc4ccncc4)cc3)c[nH]c2c1 [Serdemetan]
c. Cc1[nH]c2ccccc2c1CCNCc1ccc(/C=C/C(=O)NO)cc1 [Panobinostat]
## Input Hey, can you sort those compounds up there by EC50, CellTiter-Glo, smallest first? Put the labels in the requested order and list them out.
## Output c, a, b

###

tested on: HCC1937; assay: normalised viability (% of control), CellTiter-Blue; higher = more viable cells (about 100 = DMSO control); conditions: 1000 nM; incubation time: 72 h
measurement.type: normalised viability (%)
Hi! Could you send only the number? It should be in %, unit omitted.

Cc1ccc(NC(=O)c2ccc(CN3CCN(C)CC3)cc2)cc1Nc1nc(-c2cccnc2)cs1 :: 99.5
COCC[n+]1c2c(n(Cc3cnccn3)c1C)C(=O)c1ccccc1C2=O :: 0.8
Cc1cc(Nc2cc(CN3CCOCC3)c3nc(C)c(Cc4ccc(Cl)cc4F)n3n2)n[nH]1 :: 64.7

## Input Would you mind telling me what normalised viability value was observed for "COc1cc(OC2CCN(C)CC2)ccc1Nc1ncc2c(n1)n(C1CCCC1)c(=O)n2C" ?
## Output 98

## Input Which value of normalised viability has been reported for "O=C(/C=C/c1cccc(S(=O)(=O)Nc2ccccc2)c1)NO" in the records?
## Output 41.4

## Input Query: normalised viability; subject: "CC(C)C[C@@H](C(=O)N[C@H](C(=O)OC1CCCC1)c1ccccc1)[C@H](O)C(=O)NO"
## Output 36.8

## Input So what's the measured normalised viability for this one? COCC1(CO)C(=O)C2CCN1CC2 (centres undefined)
## Output 73.8

## Input What value of measured normalised viability is listed for "COc1cc2/c(=N/c3ccc(Br)cc3F)nc[nH]c2cc1OCC1CCN(C)CC1" ?
## Output 105

## Input Query: normalised viability; subject: "CN(C)c1nc(N(C)C)nc(N(C)C)n1"
## Output 96.3

###

tested on: DU-4475; assay: normalised response (% of control), CellTiter-Glo; higher = more viable cells (100 = DMSO, 0 = benzethonium chloride kill control); details: incubation time: 72 h
Entries annotated with measured normalised response
The answer is to be given in %; state only the numeric part.

C=C1C[C@@H]2[C@H](CC[C@]3(C)C(=O)CC[C@@H]23)[C@@]2(C)C=CC(=O)C=C12 [Exemestane] (1 nM) :: 106
O=P1(N(CCCl)CCCl)NCCCO1 (stereo unspecified) [Cyclophosphamide] (40 nM) :: 106
COCC1(CO)C(=O)C2CCN1CC2 (stereo unspecified) [Prima-1 Met] (1000 nM) :: 105
Cc1[nH]c2ccccc2c1CCNCc1ccc(/C=C/C(=O)NO)cc1 [Panobinostat] (1 nM) :: 99.1

## Input Look up normalised response for this compound: CNC(=O)c1ccc(N2C(=S)N(c3ccc(C#N)c(C(F)(F)F)c3)C(=O)C2(C)C)cc1F [Enzalutamide] (10 nM)
## Output 101

## Input Would you mind telling me what normalised response value was observed for CN(C)c1nc(N(C)C)nc(N(C)C)n1 [Altretamine] (1 nM) ?
## Output 104

## Input For COc1cc2ncnc(Nc3ccc(F)c(Cl)c3)c2cc1OCCCN1CCOCC1 [Gefitinib] (1000 nM) , what is its reported normalised response?
## Output 99.7

## Input Can you share its normalised response? I mean this compound: O=P1(N(CCCl)CCCl)NCCCO1 (stereo unspecified) [Cyclophosphamide] (4000 nM)
## Output 104

###

Below is a list of entries, each paired with its recorded drug sensitivity score value.
test system: HCC1143; assay: drug sensitivity score (DSS), CellTox Green (DSS (AUC-based score)); higher = stronger drug effect (viability inhibition or cytotoxicity); extreme values may be limits of the assay; settings: incubation time: 72 h
Please reply with the number alone, leaving off any unit.

Field: example entries. Status: answers known.
CNC(=O)c1ccc(N2C(=S)N(c3ccc(C#N)c(C(F)(F)F)c3)C(=O)C2(C)C)cc1F [Enzalutamide] :: 0
COCC[n+]1c2c(n(Cc3cnccn3)c1C)C(=O)c1ccccc1C2=O :: 23.5
COc1cc2ncnc(Nc3ccc(F)c(Cl)c3)c2cc1OCCCN1CCOCC1 :: 0
CNC(=O)c1cccc(-c2ccc3c(N4CCOC[C@@H]4C)nc(N4CCOC[C@@H]4C)nc3n2)c1 :: 0
O=C(Nc1cccnc1)N1CCC(Cc2cccc(Oc3ccc(C(F)(F)F)cn3)c2)CC1 :: 0
COc1cc2c(NC3CCN(C(C)C)CC3)nc(N3CCC(F)(F)CC3)nc2cc1OCCCN1CCCC1 :: 0

## Input # drug sensitivity score lookup, item "CN(C)CCOc1ccc(/C(=C(/CCCl)c2ccccc2)c2ccccc2)cc1"
## Output 2.33

## Input drug sensitivity score lookup needed for "COc1cc2/c(=N/c3ccc(Br)cc3F)nc[nH]c2cc1OCC1CCN(C)CC1" , thanks.
## Output 0

###

Listing: normalised response of selected compounds
tested on: HDQ-P1; assay: normalised response (% of control), CellTox Green; higher = less cell death (100 = DMSO, 0 = benzethonium chloride kill control); details: incubation time: 72 h
Please reply with the bare figure in % and do not write the unit itself.

COc1cc(O)c2c(c1)/C=C/C[C@H](O)[C@H](O)C(=O)/C=C\C[C@H](C)OC2=O [(5Z)-7-Oxozeaenol] (100 nM) :: 85.9

## Input Looking for the measured normalised response of COc1cc2ncnc(Nc3ccc(F)c(Cl)c3)c2cc1OCCCN1CCOCC1 [Gefitinib] (1000 nM) , can you help?
## Output 84.8

## Input Could you tell me which normalised response is on file for NC(=O)c1ccc(I)c([N+](=O)[O-])c1 [Iniparib] (100 nM) ?
## Output 99.5

## Input Look at this compound and give its reported normalised response. O=C(Nc1cccnc1)N1CCC(Cc2cccc(Oc3ccc(C(F)(F)F)cn3)c2)CC1 [PF-3845] (1000 nM)
## Output 70.8

###

test system: MDA-MB-468; details: 72 h
measurement.type: EC50, CellTiter-Glo (nM)

Consider the following illustrative entries.
CCc1c2c(nc3ccc(OC(=O)N4CCC(N5CCCCC5)CC4)cc13)-c1cc3c(c(=O)n1C2)COC(=O)[C@]3(O)CC :: 1620
CNC(=O)c1cc(Oc2ccc(NC(=O)Nc3ccc(Cl)c(C(F)(F)F)c3)c(F)c2)ccn1 :: 6340
CNC(=O)c1cccc(-c2ccc3c(N4CCOC[C@@H]4C)nc(N4CCOC[C@@H]4C)nc3n2)c1 :: 497
NC(=O)c1ccc(I)c([N+](=O)[O-])c1 :: 230
N#Cc1ccc(COC[C@H]2O[C@@H](n3c(NCc4ccc(Cl)c(Cl)c4)nc4c(N)ncnc43)[C@H](O)[C@@H]2O)cc1 :: 2270

A. CC(C)C[C@@H](C(=O)N[C@H](C(=O)OC1CCCC1)c1ccccc1)[C@H](O)C(=O)NO
B. COc1cc2ncnc(Nc3ccc(F)c(Cl)c3)c2cc1OCCCN1CCOCC1
## Input Hi there, can you help? I need to know whether A or B has lower measured EC50, CellTiter-Glo. Answer format: the label of the selected item.
## Output A
(A: 75.6 nM, B: 2800 nM)

###

test system: MDA-MB-231; assay: drug sensitivity score (DSS), CellTiter-Glo (DSS (AUC-based score)); higher = stronger drug effect (viability inhibition or cytotoxicity); extreme values may be limits of the assay; conditions: incubation time: 72 h
measurement.type: drug sensitivity score
// return a plain number; no unit text

Solved entries:
COc1cc2ncnc(Nc3ccc(F)c(Cl)c3)c2cc1OCCCN1CCOCC1 :: 0
COCC[n+]1c2c(n(Cc3cnccn3)c1C)C(=O)c1ccccc1C2=O :: 37.8

## Input What value of drug sensitivity score has been recorded for this entry: "COc1cc2c(NC3CCN(C(C)C)CC3)nc(N3CCC(F)(F)CC3)nc2cc1OCCCN1CCCC1"
## Output 3.72

###

normalised response values for the compounds below.
tested on: BT-474; test: normalised response (% of control), CellTox Green; higher = less cell death (100 = DMSO, 0 = benzethonium chloride kill control); conditions: incubation time: 72 h
Express the result in % but write the number alone.

COc1cc(O)c2c(c1)/C=C/C[C@H](O)[C@H](O)C(=O)/C=C\C[C@H](C)OC2=O [(5Z)-7-Oxozeaenol] (10000 nM) :: 54.5
Oc1ccc2c(c1)CC[C@H](c1ccccc1)[C@@H]2c1ccc(OCCN2CCCC2)cc1 [Lasofoxifene] (10 nM) :: 102
COc1cc2/c(=N/c3ccc(Br)cc3F)nc[nH]c2cc1OCC1CCN(C)CC1 [Vandetanib] (1000 nM) :: 96.7
S=P(N1CC1)(N1CC1)N1CC1 [Thio-TEPA] (5000 nM) :: 100
CNC(=O)c1ccc(N2C(=S)N(c3ccc(C#N)c(C(F)(F)F)c3)C(=O)C2(C)C)cc1F [Enzalutamide] (100 nM) :: 103
COCC1(CO)C(=O)C2CCN1CC2 (stereo not drawn) [Prima-1 Met] (10000 nM) :: 101

## Input # get_value(readout='normalised response', item= CN(C)CCOc1ccc(/C(=C(/CCCl)c2ccccc2)c2ccccc2)cc1 [Toremifene] (10000 nM) )
## Output 22.9

## Input Given COC(=O)c1ccc2c(c1)NC(=O)/C2=C(\Nc1ccc(N(C)C(=O)CN2CCN(C)CC2)cc1)c1ccccc1 [Nintedanib] (10000 nM) , state its recorded normalised response.
## Output -15.7
